Where these numbers come from: patent US20250163038A1

Field: IC50. Provide a value for each of the compounds that follow.
# testedTarget: Recombinant human c-Cbl (aa 47-435) (Homo sapiens, UniProt P22681)
# Sequence (P22681 47-435): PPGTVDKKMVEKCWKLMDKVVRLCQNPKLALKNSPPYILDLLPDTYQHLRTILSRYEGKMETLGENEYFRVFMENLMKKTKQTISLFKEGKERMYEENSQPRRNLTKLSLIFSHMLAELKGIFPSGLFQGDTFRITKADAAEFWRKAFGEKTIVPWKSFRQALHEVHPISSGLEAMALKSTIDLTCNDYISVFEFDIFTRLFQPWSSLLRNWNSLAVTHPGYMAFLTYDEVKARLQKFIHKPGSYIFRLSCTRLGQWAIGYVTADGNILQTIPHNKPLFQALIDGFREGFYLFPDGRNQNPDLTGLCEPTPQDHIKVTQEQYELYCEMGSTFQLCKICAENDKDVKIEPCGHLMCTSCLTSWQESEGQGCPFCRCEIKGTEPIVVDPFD
# methodDescription: c-Cbl Biochemical Assay (TR-FRET)
# runConditions: hc-Cbl Biochemical Assay (TR-FRET); read-out: TR-FRET hcCbl IC50

Memo: Cc1c(F)c(CNCC2(O)CCC2)cc2nc(-c3cc(-c4ccc(F)cc4-c4nncn4C)cc(C4CC4)n3)oc12 , reported IC50: < 200 nM

Memo: COC(=O)c1ccc2oc(-c3cccc(-c4ccc(Cl)cc4-c4nncn4C)c3)nc2c1 , reported IC50: 1000 to 10000 nM

Memo: Cn1cnnc1-c1cc(F)ccc1-c1cccc(-c2nc3cc(CN[C@@H]4CCCC[C@@H]4O)cc(C(F)(F)F)c3o2)c1 , reported IC50: < 200 nM

Memo: COC1(CN[C@@H](C)c2cc(F)c3oc(-c4cc(-c5ccc(F)cc5-c5nncn5C)cc(C5CC5)n4)nc3c2)CCC1 , reported IC50: < 200 nM

Memo: Cn1cnnc1-c1cc(F)ccc1-c1cc(Cl)nc(-c2nc3cc(CO)cc(C(F)(F)F)c3[nH]2)c1 , reported IC50: 10000 to 50000 nM

Memo: Cn1cnnc1-c1cc(F)ccc1-c1cc(-c2nc3cc(CN[C@@H]4CCC[C@@H]4O)cc(C(F)(F)F)c3o2)cc(C2CC2)c1 , reported IC50: < 200 nM

Memo: Cc1cc(CN(C)CC2(O)CCC2)cc2nc(-c3cc(-c4ccc(F)cc4-c4nncn4C)cc(C4CC4)n3)oc12 , reported IC50: 200 to 1000 nM

Memo: Cn1cnnc1-c1cc(F)ccc1-c1cc(-c2nc3cc(CN[C@@H]4CCC[C@@H]4O)ccc3o2)nc(C2CC2)c1 , reported IC50: < 200 nM

Memo: Cn1cnnc1-c1cc(F)ccc1-c1cc(-c2nc3cc(CO)ccc3o2)nc(C2CC2)c1 , reported IC50: 1000 to 10000 nM

Memo: Cn1cnnc1-c1cc(F)ccc1-c1cccc(-c2nc3cc(CNC[C@@H](O)C(F)(F)F)cc(C(F)(F)F)c3o2)c1 , reported IC50: < 200 nM

Memo: Cn1cnnc1-c1cc(F)ccc1-c1cccc(-c2nc3cc(CN[C@@H]4CCC[C@@H]4O)c(F)c(F)c3o2)c1 , reported IC50: < 200 nM

Memo: Cn1cnnc1-c1cc(F)ccc1-c1cccc(-c2nc3cc(CNC[C@@H](O)C4CC4)cc(C(F)(F)F)c3o2)c1 (single isomer, unassigned) , reported IC50: < 200 nM

Memo: Cn1cnnc1-c1cc(F)ccc1-c1cc(-c2nc3cc(CNCC4(O)CCCC4)ccc3o2)nc(C2CC2)c1 , reported IC50: < 200 nM

Memo: Cn1cnnc1CC1(c2cccc(-c3nc4cccc(C(F)(F)F)c4o3)c2)COC1 , reported IC50: 10000 to 50000 nM

Memo: Cn1cnnc1-c1cc(F)ccc1-c1cc(-c2nc3cc(CNCC4CCC4)cc(F)c3o2)nc(C2CC2)c1 , reported IC50: < 200 nM

Memo: Cn1cnnc1-c1cc(F)ccc1-c1cccc(-c2nc3cc(CO)cc(C4CC4)c3o2)c1 , reported IC50: 200 to 1000 nM

Memo: COc1cc(CN[C@@H]2CCC[C@@]2(C)O)cc2nc(-c3cccc(-c4ccc(F)cc4-c4nncn4C)c3)oc12 , reported IC50: 200 to 1000 nM

Memo: C[C@@H](O)CNCc1cc(C(F)(F)F)c2oc(-c3cccc(-c4ccc(F)cc4-c4nncn4C)c3)nc2c1 , reported IC50: 1000 to 10000 nM

Memo: CN(Cc1cc(C(F)(F)F)c2oc(-c3cccc(-c4ccc(F)cc4-c4nncn4C)c3)nc2c1)CC(C)(C)O , reported IC50: 1000 to 10000 nM

Memo: COc1cc(CN[C@@H]2CCC[C@]2(C)O)cc2nc(-c3cccc(-c4ccc(F)cc4-c4nncn4C)c3)oc12 , reported IC50: 200 to 1000 nM

Memo: COC1(CN[C@H](C)c2cc(F)c3oc(-c4cc(-c5ccc(F)cc5-c5nncn5C)cc(C5CC5)n4)nc3c2)CCC1 , reported IC50: 200 to 1000 nM

Memo: Cn1cnnc1-c1cc(Cl)ccc1-c1cccc(-c2nc3cc(CN[C@@H]4CCC[C@@H]4O)cc(C(F)(F)F)c3[nH]2)c1 , reported IC50: < 200 nM

Memo: Cn1cnnc1-c1ccccc1-c1cc(-c2nc3cc(CN4CCC5(CC5)C4)cc(C(F)(F)F)c3[nH]2)nc(C2CC2)c1 , reported IC50: 1000 to 10000 nM

Memo: Cc1cc(CN[C@@H]2CCC[C@@H]2O)cc2nc(-c3cccc(-c4ccc(F)cc4-c4nncn4C)c3)oc12 , reported IC50: < 200 nM
